The reported measurements were obtained from patent US10365286B2.

- Protocol Description: Luminescence measurements of Eu(III) chelates with the ligands
- Type: physicochemical
- Settings: Eu(III) complex of the ligand; 10 mM NH3-HCl buffer, pH 8.3
Observed Property: luminescence lifetime τ (μs)

**Q:** Let me know recorded luminescence lifetime τ for O=C(O)CN(CC(=O)O)Cc1cc(C#Cc2ccc3c(c2)C(CC(=O)O)(CC(=O)O)c2ccccc2-3)cc(CN(CC(=O)O)CC(=O)O)n1 [Compound 14] , thanks.
**A:** 355

**Q:** Let me know recorded luminescence lifetime τ for O=C(O)CN(CC(=O)O)Cc1cc(C#Cc2ccccc2)cc(CN(CC(=O)O)CC(=O)O)n1 [Ref ligand, reference compound] , thanks.
**A:** 385

**Q:** Let me know recorded luminescence lifetime τ for O=C(O)CN(CC(=O)O)Cc1cc(-c2ccc3c(c2)Cc2ccccc2-3)cc(CN(CC(=O)O)CC(=O)O)n1 [Compound 11] , thanks.
**A:** 380

**Q:** Let me know recorded luminescence lifetime τ for O=C(O)CN(CC(=O)O)Cc1cc(-c2ccc3c(c2)C(CC(=O)O)(CC(=O)O)c2ccccc2-3)cc(CN(CC(=O)O)CC(=O)O)n1 [Compound 12] , thanks.
**A:** 390
